# scaled log2 fold change listing for each entry below
B1: library; numbered along this chain (parent)
chain: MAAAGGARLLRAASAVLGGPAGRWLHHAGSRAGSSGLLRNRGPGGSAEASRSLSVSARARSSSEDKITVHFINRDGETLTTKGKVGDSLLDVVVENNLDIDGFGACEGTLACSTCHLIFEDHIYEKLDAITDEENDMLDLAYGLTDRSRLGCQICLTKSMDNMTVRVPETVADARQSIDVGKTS

variants of: B1; experiment: scaled log2 fold change in cell abundance, elesclomol vs control (0 = silent mean, 1 = nonsense mean) (scaled log2 ratio); higher = higher viability under elesclomol (loss of FDX1 cuproptosis function); conditions: with ABC1 FDX1 KO; elesclomol 5 nM; glucose 10 mM; 14 days;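 further: variant abundance is its share of total variant reads in each endpoint sample, from next-generation sequencing of the integrated ORF PCR-amplified out of genomic DNA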
Parameter Measured: scaled log2 fold change

>>> recorded_result("E169F")
-0.455
>>> recorded_result("R8T")
-0.656
>>> recorded_result("T164W")
-0.403
>>> recorded_result("E64G")
-0.323
>>> recorded_result("T80Y")
0.26
>>> recorded_result("A32S")
0.0206
>>> recorded_result("S177Y")
-1.05
>>> recorded_result("G76H")
0.293
>>> recorded_result("E48K")
0.46
>>> recorded_result("T81P")
0.103
>>> recorded_result("L38C")
-0.631
>>> recorded_result("H26G")
-0.196
>>> recorded_result("A12H")
0.526
>>> recorded_result("D99K")
0.114
>>> recorded_result("A141W")
-0.0378
>>> recorded_result("E48F")
0.809
>>> recorded_result("S177M")
-0.566
>>> recorded_result("H27E")
-0.316
>>> recorded_result("V180M")
0.313
>>> recorded_result("V180W")
-0.111
>>> recorded_result("I72G")
-0.24
>>> recorded_result("C155I")
0.0211
>>> recorded_result("G44L")
-0.1
>>> recorded_result("T145M")
0.318
>>> recorded_result("L9H")
-0.458
>>> recorded_result("N135F")
0.44
>>> recorded_result("D121F")
0.353
>>> recorded_result("A105I")
-0.149
>>> recorded_result("H122F")
-0.949
>>> recorded_result("N97W")
0.133
>>> recorded_result("E107G")
-0.152
>>> recorded_result("D132A")
-0.35
>>> recorded_result("P20M")
-0.56
>>> recorded_result("L53E")
0.206
>>> recorded_result("R31P")
0.561
>>> recorded_result("M137S")
-0.337
>>> recorded_result("G151K")
1.04
>>> recorded_result("G36V")
-0.491
>>> recorded_result("N97S")
-0.104
>>> recorded_result("R39L")
-0.142
>>> recorded_result("R149K")
0.66
>>> recorded_result("L10G")
0.705
>>> recorded_result("Y142N")
-0.329
>>> recorded_result("G83Q")
0.455
>>> recorded_result("I67G")
0.747
>>> recorded_result("S35D")
0.267
>>> recorded_result("F119K")
1.05
>>> recorded_result("I154P")
1.04
>>> recorded_result("D87P")
0.439
>>> recorded_result("N97V")
-0.176
>>> recorded_result("N135Q")
0.215
>>> recorded_result("T131P")
0.137
>>> recorded_result("V165L")
-0.0209
>>> recorded_result("D101W")
0.326
>>> recorded_result("I100N")
0.181
>>> recorded_result("S177V")
-0.287
>>> recorded_result("H26W")
0.101
>>> recorded_result("L90G")
0.46
>>> recorded_result("T109F")
-0.985
>>> recorded_result("L25A")
-0.505
>>> recorded_result("Q176T")
-0.0483
>>> recorded_result("I178E")
0.2
>>> recorded_result("A21R")
-0.644
>>> recorded_result("D161G")
-0.198
>>> recorded_result("G44S")
0.141
>>> recorded_result("D121G")
0.178
>>> recorded_result("V85C")
-0.197
>>> recorded_result("T170L")
-0.0824
>>> recorded_result("I130E")
-0.051
>>> recorded_result("L37M")
0.0458
>>> recorded_result("A105Q")
-0.126
>>> recorded_result("V180L")
-0.0572
>>> recorded_result("D132P")
-0.221
>>> recorded_result("L138M")
0.188
>>> recorded_result("V55I")
0.323
>>> recorded_result("G18V")
0.494
>>> recorded_result("S177L")
-0.34
>>> recorded_result("D128I")
-0.0983
>>> recorded_result("D65Q")
0.0546
>>> recorded_result("D75T")
-0.752
>>> recorded_result("S184H")
0.0751
>>> recorded_result("V165F")
0.53
>>> recorded_result("R39W")
0.0801
>>> recorded_result("N73R")
0.219
>>> recorded_result("D128Q")
-0.253
>>> recorded_result("M163R")
0.657
>>> recorded_result("G181W")
0.226
>>> recorded_result("A172T")
-0.0186
>>> recorded_result("P20K")
0.251

Reference for the values: the supplement of paper PMC12855868
